Data provenance is PubChem BioAssay (NCI).

Test system: MDA-MB-231 breast
Test: NCI tumour cell line growth inhibition, 48 h
Reported TGI is given for each of the following compounds.
Form entry: value (µM) — number only.

Consider the reported TGI for these compounds:
COc1cc(/C=C2\CC3C4CC=C5CC(OC(C)=O)CC[C@]5(C)C4CC[C@]3(C)C2=O)ccc1OCCN1CCCC1 (stereo not given in full): 11.2
CNC(=O)Oc1cc(C(C)C)ccc1Sc1ccc(C(C)C)cc1OC(=O)NC: 19.4
CC1=C(O)C(=O)C=C2C1=CC=C1[C@@]2(C)CC[C@@]2(C)C3C[C@@H](C)C(=O)[C@@H](O)[C@]3(C)CC[C@]12C (stereo not given in full): 3.75

Field: next compound
Exam item: Give reported TGI for COC(=O)NC(=O)NC(Cc1ccccc1)NC(=O)OCc1ccccc1 (stereo not given) (MDA-MB-231 breast)
Marked response: 78.1

----------
System: MCF7 breast
Experiment: NCI tumour cell line growth inhibition, 48 h; in the data active = GI50 below about 0.43 µM; inactive = the rest
Use one of these outcomes when replying: active, inactive

COc1ccc(C2=NN(C(N)=S)C(c3ccc4c(c3)OCO4)C2)cc1 (stereo not drawn): inactive
COc1ccc(-c2nc3sc(-c4cc(OC)c(OC)c(OC)c4)nn3c2/C=C2/C(=O)Nc3ccc(F)cc32)cc1: inactive
O=[N+]([O-])c1ccc(C2=NCCO2)cc1: inactive
CN1C(=O)C(c2c[nH]c3ccccc23)=C(c2c[nH]c3ccccc23)C1=O: inactive

Exam item: Test call, this compound: Cc1c(Cl)cccc1C(=O)Nc1nc2c(s1)CN(C(=O)Nc1cccc(C(F)(F)F)c1)CC2
Marked response: active

Exam item: Test call, this compound: CCOc1ccc(N(C)c2ccc(/C=C/C3=[N+](C)c4ccccc4C3(C)C)cc2)cc1
Marked response: inactive

Exam item: Test call, this compound: CCC(=C(c1ccc(OCCN2CCCCC2)cc1)c1ccc(OCCN2CCCCC2)cc1)c1ccc(Cl)cc1
Marked response: inactive

Exam item: Test call, this compound: COC(=O)[C@@H](C)C[C@H](Cc1ccccc1)NC(=O)c1nc([C@@H](C[C@H](C(C)C)N(C)C(=O)[C@@H](NC(=O)[C@H]2C[C@H](O)CCN2C)C(C)C)OC(C)=O)sc1C(C)C
Marked response: active

----------
Reported TGI is given for each of the following compounds.
Test system: MDA-MB-231 breast
Assay: NCI tumour cell line growth inhibition, 48 h
Form entry: value (µM) — number only.

COC(=O)N[C@H]1CCc2cc(OC)c(OC)c(OC)c2-c2ccc(SC)c(=O)cc21: 29

Exam item: Give the reported value of TGI for this record: Cc1cn([C@@H]2O[C@H](CO[Si](C)(C)C(C)(C)C)[C@]3(O[C@H]3C(=O)NO)[C@H]2O[Si](C)(C)C(C)(C)C)c(=O)[nH]c1=O
Marked response: 4.19

----------
Test system: SW-620 colon
Experiment: NCI tumour cell line growth inhibition, 48 h; in the data active = GI50 below about 0.43 µM; inactive = the rest
Use one of these outcomes when replying: label 1 for active, label 0 for inactive

Example results:
O=S(=O)(NCCCNc1cc(-c2cn(-c3ccccc3)nc2-c2cccc(O)c2)ccn1)c1ccc(C(F)(F)F)cc1: label 0
COc1cc2cc(NCc3cccc(Cl)c3)nc(C)c2cc1OC: label 0
CN1CCN(Cc2ccc(NC(=O)c3cncc(C#Cc4cnc(N)c5ncccc45)c3)cc2C(F)(F)F)CC1: label 1

Exam item: Test call, this molecule: COC(=O)N[C@H]1CCc2cc(OC)c(OC)c(OC)c2-c2ccc(SC)c(=O)cc21
Marked response: label 1

Exam item: Test call, this molecule: CCOc1ccc(N(C)c2ccc(/C=C/C3=[N+](C)c4ccccc4C3(C)C)cc2)cc1
Marked response: label 1

Exam item: Test call, this molecule: C[C@@H]1CN2[C@H]3[C@@H]1CC[C@]31CCC(=O)O[C@]1(C)[C@H]1CC[C@H]3CCC=C3[C@@H]12
Marked response: label 0

Exam item: Test call, this molecule: C=CCc1cccc(C=O)c1O
Marked response: label 0

Exam item: Test call, this molecule: CCC(=C(c1ccc(OCCN2CCCCC2)cc1)c1ccc(OCCN2CCCCC2)cc1)c1ccc(Cl)cc1
Marked response: label 0

Exam item: Test call, this molecule: CN(C)CCNC(=O)c1cc2c3cc(Cl)ccc3[nH]c2c2ncccc12
Marked response: label 0

Exam item: Test call, this molecule: COc1cc(/C=C2\CC3C4CC=C5CC(OC(C)=O)CC[C@]5(C)C4CC[C@]3(C)C2=O)ccc1OCCN1CCCC1 (stereo partly drawn)
Marked response: label 0

Exam item: Test call, this molecule: CCN(Cc1ccc(OC)cc1)c1ccc(CO)c(Cl)c1
Marked response: label 0

Exam item: Test call, this molecule: COc1cccc2c1nc(C(F)F)n2-c1nc(-c2ccc(NS(=O)(=O)CCN(C)C)cc2)nc(N2CCOCC2)n1
Marked response: label 1

Exam item: Test call, this molecule: COc1cc(/C=C/C(=O)c2cccc(-n3cc(-c4ccccc4)[nH]c3=O)c2)cc(OC)c1OC
Marked response: label 1

----------
Tested on: UACC-62 melanoma
Experiment: NCI tumour cell line growth inhibition, 48 h
endpoint: GI50

COC(=O)[C@@H](C)C[C@H](Cc1ccccc1)NC(=O)c1nc([C@@H](C[C@H](C(C)C)N(C)C(=O)[C@@H](NC(=O)[C@H]2C[C@H](O)CCN2C)C(C)C)OC(C)=O)sc1C(C)C: 0.00243 µM

Exam item: Give the reported value of GI50 for this record: Cn1ncnc1[C@@H]1c2n[nH]c(=O)c3cc(F)cc(c23)N[C@H]1c1ccc(F)cc1
Marked response: > 100 µM

Exam item: Give the reported value of GI50 for this record: N#CCCNc1nonc1-c1nc2ccccc2n1CC(=O)c1ccc(N)cc1
Marked response: < 0.0154 µM

Exam item: Give the reported value of GI50 for this record: O=C1C=C(Nc2ccccc2)c2ccccc2C1=O
Marked response: 1.65 µM

Exam item: Give the reported value of GI50 for this record: CN1CCN(Cc2ccc(NC(=O)c3cncc(C#Cc4cnc(N)c5ncccc45)c3)cc2C(F)(F)F)CC1
Marked response: 0.341 µM

Exam item: Give the reported value of GI50 for this record: CC(C)=CCc1cc2c(cc1O)C1=C(C(=O)C3=C(NCCS3(=O)=O)C1=O)C(C=C(C)C)O2 (configuration not stated)
Marked response: 3.39 µM

Exam item: Give the reported value of GI50 for this record: Nc1ccc(/C=C/c2ccc3ncccc3c2)cc1
Marked response: > 100 µM

----------
Reported TGI is given for each of the following compounds.
Test system: SF-268 CNS
Assay: NCI tumour cell line growth inhibition, 48 h

Consider the reported TGI for these compounds:
COc1cc2c(cc1OS(C)(=O)=O)N=C[C@@H]1CCCN1C2=O: > 100 µM
O=C(O)c1cc(CCc2ccc(O)c(O)c2)ccc1O: > 100 µM
CC1(C)N=C(N)N=C(N)N1c1ccc(OCCCNC(=O)Nc2ccc(S(=O)(=O)F)cc2)c(Cl)c1: > 100 µM
COc1ccc2c(c1)/C(=C/c1c(O)[nH]c(=S)[nH]c1=O)C=N2: 61.8 µM
C/C(CN1C(=O)c2ccccc2C1=O)=N\NS(=O)(=O)c1ccc2ccccc2c1: > 100 µM
COc1ccc(/C=C/C(=O)c2cc(OC)cc(OC)c2)cc1: 16.4 µM
CN1C2CCC1/C(=C/c1cccc3c1OCO3)C(=O)/C2=C\c1cccc2c1OCO2: > 100 µM
C=CCN1C(=O)CC2[C@@H]3CCc4cc(O)ccc4C3CC[C@]2(C)C1=O (stereo partly specified): > 10 µM
N/N=c1/nc2n(c3ncccc13)C=CNN2: > 100 µM
CC(C)[Si](OC12CCC(CC1O)CC2CO)(C(C)C)C(C)C (stereo unspecified): 27.9 µM

Field: next compound
Exam item: Give the reported value of TGI for this record: CNC(=O)Oc1cc(C(C)C)ccc1Sc1ccc(C(C)C)cc1OC(=O)NC
Marked response: 19.4 µM

----------
Tested on: CCRF-CEM leukemia
Experiment: NCI tumour cell line growth inhibition, 48 h
endpoint: TGI

Consider the reported TGI for these molecules:
CC(=O)/C(=C\c1ccc(Cl)cc1)c1ccccc1: > 100 µM
CC1(C)N=C(N)N=C(N)N1c1ccc(OCCCNC(=O)Nc2ccc(S(=O)(=O)F)cc2)c(Cl)c1: > 100 µM
COc1ccc(C2COc3c(ccc(OC)c3OC)C2=O)cc1OC (stereo unspecified): > 100 µM
CCOC(=O)c1nc2ccccc2nc1Oc1cc(OC)cc(OC)c1: > 100 µM
NC(N)=N/N=C\c1c(-c2cccc([N+](=O)[O-])c2)nc2sccn12: > 100 µM

Field: next molecule
Exam item: Give reported TGI for CC(NCc1c(O)ccc2c(-c3ccccc3)cc(=O)oc12)C(=O)O (stereo unspecified) (CCRF-CEM leukemia)
Marked response: > 100 µM

----------
Reported TGI is given for each of the following compounds.
Tested on: RPMI-8226 leukemia
Assay: NCI tumour cell line growth inhibition, 48 h

Consider the reported TGI for these compounds:
C/C(=N/NC(=O)c1ccncc1)C(F)(F)F: > 100 µM
COc1cccc(OC)c1C1ON=C(c2ccccc2)N1C12CC3CC(CC(C3)C1)C2 (stereo not given): > 100 µM
CN(C)c1cccc(-c2cc(=S)c3cc4c(cc3[nH]2)OCO4)c1: > 100 µM
Cn1cc(-c2ccc3nc(-c4ccc(CC(=O)Nc5cc(C(C)(C)C)no5)cc4)cnc3c2)cn1: > 3 µM
C=CCN1C(=O)CC2[C@@H]3CCc4cc(O)ccc4C3CC[C@]2(C)C1=O (stereo not given in full): > 10 µM
COc1cc([C@@H]2c3cc4c(cc3[C@H](OC3OC5COC(c6ccco6)OC5C(O)C3O)C3COC(=O)[C@@H]32)OCO4)cc(OC)c1OC (stereo not given in full): > 100 µM

Exam item: Give reported TGI for O=C1NC(=O)C(c2c[nH]c3ccccc23)=C1c1c[nH]c2ccccc12 (RPMI-8226 leukemia)
Marked response: > 25 µM

Exam item: Give reported TGI for Cc1cc(I)cc(CNCCN(C)C)c1O (RPMI-8226 leukemia)
Marked response: > 100 µM

Exam item: Give reported TGI for N#CC(C#N)=c1c(=O)c2c3ccccc3cc3cccc1c32 (RPMI-8226 leukemia)
Marked response: > 100 µM

Exam item: Give reported TGI for COC(=O)C(=O)C(C#N)c1nc2ccccc2s1 (stereo not given) (RPMI-8226 leukemia)
Marked response: > 100 µM
